- assay: Permeability of the compound at pH 7.4 by PAMPA
- Type: ADME
- condition_parameters: read-out: permeability
measurement_label: Papp (×10⁻⁶ cm/s)

CCCCc1nc(=O)c(S(=O)(=O)c2ccc(C)cc2)c(O)n1-c1c(OC)cccc1OC 0.7
CCCCc1nc(=O)c(S(=O)(=O)c2ccc(-n3ccccc3=O)cc2)c(O)n1-c1c(OC)cccc1OC 0.1
COc1cccc(OC)c1-n1c(COC(C)C)nc(=O)c(S(=O)(=O)c2ccc(-c3ccc(F)nc3)cc2)c1O 0.4
CCCCc1nc(=O)c(S(=O)(=O)c2ccc(-c3ccnc(NC(=O)C4CC4)c3)cc2)c(O)n1-c1c(OC)cccc1OC 1.1
CCCCc1[nH]c(=O)c(S(=O)(=O)c2ccc(-c3ccncc3C)cc2)c(O)c1-c1c(OC)cccc1OC 7.6

I = CCCCc1nc(=O)c(S(=O)(=O)c2ccc(-c3ccc(F)cc3)cc2)c(O)n1-c1c(OC)cccc1OC
II = COc1cccc(OC)c1-n1c(CCC(C)C)nc(=O)c(S(=O)(=O)c2ccc(-c3ccc(F)nc3)cc2)c1O
III = CCCCc1[nH]c(=O)c(S(=O)(=O)c2ccc(-n3ccccc3=O)cc2)c(O)c1-c1c(OC)cccc1OC
IV = CCCCc1nc(=O)c(S(=O)(=O)c2ccc(-c3ccc(F)nc3)cc2)c(O)n1-c1c(OC)cccc1OC
Query string: Order the 4 compounds from highest to lowest Papp. Answer by listing the labels in the order asked for.
Result string: I, II, IV, III

* * *

- experimental_target: Apelin receptor (Homo sapiens)
- Sequence (P35414 whole entry): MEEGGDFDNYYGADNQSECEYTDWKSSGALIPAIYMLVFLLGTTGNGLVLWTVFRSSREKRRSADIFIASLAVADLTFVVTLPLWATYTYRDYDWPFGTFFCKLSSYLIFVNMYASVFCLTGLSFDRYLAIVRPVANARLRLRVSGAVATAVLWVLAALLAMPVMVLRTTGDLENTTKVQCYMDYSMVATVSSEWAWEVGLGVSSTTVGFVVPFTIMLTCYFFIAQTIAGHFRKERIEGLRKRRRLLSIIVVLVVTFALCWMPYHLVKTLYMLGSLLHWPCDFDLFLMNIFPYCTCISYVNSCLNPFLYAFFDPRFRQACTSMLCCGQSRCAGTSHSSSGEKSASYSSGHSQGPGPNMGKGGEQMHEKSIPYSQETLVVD
- assay: Agonist activity at human APJ receptor assessed as effect on cAMP accumulation by cAMP-Glo assay
measurement_label: EC50 (nM)

CCCCc1nc(=O)c(S(=O)(=O)c2ccc(-n3cc(Cl)ccc3=O)cc2)c(O)n1-c1c(OC)cccc1OC 0.05

1 = COc1cccc(OC)c1-n1c(-c2cncc(C)c2)nc(=O)c(S(=O)(=O)c2ccc(C3CC3)cc2)c1O
2 = CCCCc1nc(=O)c(S(=O)(=O)c2ccc(-c3cccnc3)cc2)c(O)n1-c1c(OC)cccc1OC
Query string: Task for the reader: decide whether 1 or 2 has the larger EC50. Lab note: record the label of whichever item you select.
Result string: 1
(1: 5 nM, 2: 0.04 nM)

* * *

- experimental_target: Apelin receptor (Rattus norvegicus, UniProt Q9JHG3)
- Sequence (Q9JHG3 whole entry): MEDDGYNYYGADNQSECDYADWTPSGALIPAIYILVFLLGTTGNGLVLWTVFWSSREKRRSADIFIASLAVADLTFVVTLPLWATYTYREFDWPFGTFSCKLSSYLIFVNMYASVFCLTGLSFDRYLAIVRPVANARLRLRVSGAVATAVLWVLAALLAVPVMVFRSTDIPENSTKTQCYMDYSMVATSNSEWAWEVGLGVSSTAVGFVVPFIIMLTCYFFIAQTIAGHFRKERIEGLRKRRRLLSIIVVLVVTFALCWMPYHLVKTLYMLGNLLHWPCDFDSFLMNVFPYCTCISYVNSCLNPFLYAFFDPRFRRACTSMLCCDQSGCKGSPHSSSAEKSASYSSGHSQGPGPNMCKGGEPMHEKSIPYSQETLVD
- assay: Agonist activity at rat APJ receptor assessed as effect on cAMP accumulation by cAMP-Glo assay
pEC50: −log10 of the molar value.
measurement_label: pEC50

See these solved cases before continuing.
CCCCc1nc(=O)c(S(=O)(=O)c2ccc(-c3ccnc(NC(=O)C4CC4)c3)cc2)c(O)n1-c1c(OC)cccc1OC 10.40
CCCCc1nc(=O)c(S(=O)(=O)c2ccccc2)c(O)n1-c1c(OC)cccc1OC 9.05
CCCCc1nc(=O)c(S(=O)(=O)c2ccc(C)cc2)c(O)n1-c1c(OC)cccc1OC 9.52

I = CCCCc1nc(=O)c(S(=O)(=O)c2ccc(-c3ccc(F)cc3)cc2)c(O)n1-c1c(OC)cccc1OC
II = CCCCc1nc(=O)c(S(=O)(=O)c2ccc(C3CC3)cc2)c(O)n1-c1c(OC)cccc1OC
III = CCCCc1[nH]c(=O)c(S(=O)(=O)c2ccc(-c3ccncc3C)cc2)c(O)c1-c1c(OC)cccc1OC
Query string: Order the 3 compounds from highest to lowest pEC50. Answer by listing the labels in the order asked for.
Result string: I, II, III

a = CCCCc1nc(=O)c(S(=O)(=O)c2ccc(-n3cc(Cl)ccc3=O)cc2)c(O)n1-c1c(OC)cccc1OC
b = CCCCc1nc(=O)c(S(=O)(=O)c2ccc(-c3cccnc3)cc2)c(O)n1-c1c(OC)cccc1OC
c = CCCCc1[nH]c(=O)c(S(=O)(=O)c2ccc(-n3cc(Cl)ccc3=O)cc2)c(O)c1-c1c(OC)cccc1OC
d = COc1cccc(OC)c1-n1c(COC(C)C)nc(=O)c(S(=O)(=O)c2ccc(-c3ccc(F)nc3)cc2)c1O
e = CCCCc1[nH]c(=O)c(S(=O)(=O)c2ccc(-n3ccccc3=O)cc2)c(O)c1-c1c(OC)cccc1OC
Query string: Order the 5 compounds from highest to lowest pEC50. Answer by listing the labels in the order asked for.
Result string: a, d, b, c, e

* * *

- experimental_target: Apelin receptor (Mus musculus, UniProt Q9WV08)
- Sequence (Q9WV08 whole entry): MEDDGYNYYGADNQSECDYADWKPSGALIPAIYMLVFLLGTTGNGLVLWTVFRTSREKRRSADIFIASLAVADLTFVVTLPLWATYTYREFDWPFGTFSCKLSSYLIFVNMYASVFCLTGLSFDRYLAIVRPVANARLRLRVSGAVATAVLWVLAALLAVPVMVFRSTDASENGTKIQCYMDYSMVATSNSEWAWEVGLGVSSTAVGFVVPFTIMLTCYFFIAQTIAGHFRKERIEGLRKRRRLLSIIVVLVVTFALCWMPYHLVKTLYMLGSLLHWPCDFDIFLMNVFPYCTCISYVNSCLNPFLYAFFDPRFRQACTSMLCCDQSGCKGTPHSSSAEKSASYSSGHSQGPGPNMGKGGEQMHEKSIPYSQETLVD
- assay: Agonist activity at mouse APJ receptor assessed as effect on cAMP accumulation by cAMP-Glo assay
measurement_label: EC50 (nM)

a = CCCCc1[nH]c(=O)c(S(=O)(=O)c2ccc(-n3ccccc3=O)cc2)c(O)c1-c1c(OC)cccc1OC
b = COc1cccc(OC)c1-n1c(-c2cncc(C)c2)nc(=O)c(S(=O)(=O)c2ccc(C3CC3)cc2)c1O
c = CCCCc1nc(=O)c(S(=O)(=O)c2ccc(-c3cccnc3)cc2)c(O)n1-c1c(OC)cccc1OC
d = CCCCc1nc(=O)c(S(=O)(=O)c2ccc(-c3ccc(F)nc3)cc2)c(O)n1-c1c(OC)cccc1OC
Query string: Put the items in sequence by EC50, from largest down. Answer by listing the labels in the order asked for.
Result string: b, a, c, d

* * *

- assay: Metabolic stability in rat liver microsomes assessed as parent compound remaining incubated for 10 mins in presence of NADPH
- Assay type: ADME, Microsome
- condition_parameters: read-out: Stabilty
measurement_label: remaining at 10 min (%)

COc1cccc(OC)c1-n1c(COC(C)C)nc(=O)c(S(=O)(=O)c2ccc(-c3ccc(F)nc3)cc2)c1O 30
CCCCc1[nH]c(=O)c(S(=O)(=O)c2ccc(-n3cc(Cl)ccc3=O)cc2)c(O)c1-c1c(OC)cccc1OC 72
CCCCc1nc(=O)c(S(=O)(=O)c2ccccc2)c(O)n1-c1c(OC)cccc1OC 93
CCCCc1nc(=O)c(S(=O)(=O)c2ccc(-c3cccnc3)cc2)c(O)n1-c1c(OC)cccc1OC 3
CCCCc1nc(=O)c(S(=O)(=O)c2ccc(C3CC3)cc2)c(O)n1-c1c(OC)cccc1OC 59

1 = CCCCc1nc(=O)c(S(=O)(=O)c2ccc(-c3ccnc(NC(=O)C4CC4)c3)cc2)c(O)n1-c1c(OC)cccc1OC
2 = CCCCc1nc(=O)c(S(=O)(=O)c2ccc(-c3ccc(F)nc3)cc2)c(O)n1-c1c(OC)cccc1OC
Query string: Task for the reader: decide whether 1 or 2 has the larger remaining at 10 min. Lab note: record the label of whichever item you select.
Result string: 1
(1: 72%, 2: 2%)
